Source listed as patent US4555518A.

Provide the recorded ED50 for the entries that follow.
System: gastric lesion formation (rat stomach)
Experiment: Shay rat: inhibition of gastric lesion formation induced by pyloric ligature and oral acetylsalicylic acid (protective effect on the stomach)
Type: in vivo
Conditions: perorally, rats, 1 h before pyloric ligature, 4 h, 100 mg/kg acetylsalicylic acid, dose reducing lesion index by 50% vs control

Incoming: // fetch ED50 given entry COc1ccnc(C[S+]([O-])c2nc3cc(OC(F)F)ccc3[nH]2)c1C (stereo not drawn)
Outgoing: ~0.3 mg/kg

Incoming: // fetch ED50 given entry COc1ccnc(C[S+]([O-])c2nc3cc(OC(F)F)c(OC(F)F)cc3[nH]2)c1 (stereo not drawn)
Outgoing: ~1.2 mg/kg

Incoming: // fetch ED50 given entry COc1ccc2[nH]c([S+]([O-])Cc3cc(OC)c(C)cn3)nc2c1 (stereo not drawn) [Serial No. D, reference compound]
Outgoing: ~5 mg/kg
